system: enucleated skin of a hairless mouse; test: Drug permeability test by in vitro diffusion cell; format: in vitro ADME; conditions: pH 7.2
Overview of reported Drug permeability across a group of compounds:
observation.type: Drug permeability (%)

compound	recorded.measurement
CCCCCCCCCCCCCCCCCCCCCC[N+](C)(C)[O-] [Example 5-2, Dimethylbehenylamine oxide]	28.6
CCCCCCCCCCCCCCCCCC[N+]([O-])(CCO)CCO [Example 5-3, Dihyroxyethylstearylamine oxide]	30.5
CCCCCCCCCCCCCC[N+](C)(C)[O-] [Example 5-5, Dimethylmyristylamine oxide]	11.8
CCCCCCCCCCCCCCCCCC[N+](C)(C)[O-] [Example 5-1, Dimethylstearylamine oxide]	44.0
